Overview of reported Human GLP-1 R activity (cAMP release), % activity with respect to control across a group of compounds:
target: Human GLP-1 receptor (Homo sapiens, UniProt P43220); construct: The full-length cDNA was cloned in pcDNA3.1(+); expressed in transfected cells; assay: In vitro Human GLP-1 R agonist activity (cyclic AMP determination) in CHO/human GLP1R cells; format: cell-based; settings: 100 nM test compound
Sequence (P43220 24-463): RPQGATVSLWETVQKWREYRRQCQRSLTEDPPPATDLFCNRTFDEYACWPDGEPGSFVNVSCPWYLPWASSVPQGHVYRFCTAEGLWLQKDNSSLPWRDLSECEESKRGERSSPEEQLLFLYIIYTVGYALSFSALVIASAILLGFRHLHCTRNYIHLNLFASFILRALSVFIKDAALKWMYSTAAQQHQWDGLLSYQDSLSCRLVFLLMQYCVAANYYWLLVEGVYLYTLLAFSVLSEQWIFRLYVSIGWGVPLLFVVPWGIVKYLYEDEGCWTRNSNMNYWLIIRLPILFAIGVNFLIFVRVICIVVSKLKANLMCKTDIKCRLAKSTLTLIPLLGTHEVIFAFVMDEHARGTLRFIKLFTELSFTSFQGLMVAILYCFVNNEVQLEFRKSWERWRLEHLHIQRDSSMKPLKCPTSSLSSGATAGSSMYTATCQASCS
Kindly write the number and append the unit.

Compound	Value measured
CCc1cc(OC)ccc1-c1ccc(CC(NC(=O)[C@H](CC(=O)O)NC(=O)[C@H](CO)NC(=O)[C@@H](NC(=O)C(C)(Cc2ccccc2F)NC(=O)[C@@H](NC(=O)CNC(=O)C(CCC#N)NC(=O)C(C)(C)NC(=O)[C@H](Cc2c[nH]cn2)NC(=O)OC)[C@@H](C)O)[C@@H](C)O)C(=O)NC(CCCc2ccccc2)C(N)=O)cc1 (single isomer, unassigned)	86 ± 0.18%
CCc1cc(OC)ccc1-c1ccc(CC(NC(=O)[C@H](CC(=O)O)NC(=O)[C@H](CO)NC(=O)[C@@H](NC(=O)[C@H](Cc2ccccc2)NC(=O)[C@@H](NC(=O)CNC(=O)[C@H](CCC(N)=O)NC(=O)[C@H](CO)NC(=O)[C@@H](N)Cc2c[nH]cn2)[C@@H](C)O)[C@@H](C)O)C(=O)NC(CCCc2ccccc2F)C(N)=O)cc1 (single isomer, unassigned)	91 ± 0.21%

// switching to the query compound
Input line: Return reported Human GLP-1 R activity (cAMP release), % activity with respect to control; argument: CCc1cc(OC)ccc1-c1ccc(CC(NC(=O)[C@H](CC(=O)O)NC(=O)[C@H](CO)NC(=O)[C@@H](NC(=O)[C@H](Cc2ccccc2)NC(=O)[C@@H](NC(=O)CNC(=O)C(CCC#N)NC(=O)C(C)(C)NC(=O)[C@@H](N)Cc2c[nH]cn2)[C@@H](C)O)[C@@H](C)O)C(=O)NC(CCCc2ccccc2C(F)(F)F)C(N)=O)cc1 (single isomer, unassigned)
Output line: 99 ± 0.06%

---

assay: Stability in simulated gastric fluid; assay type: in vitro ADME; settings: 2 μM peptidomimetic, simulated gastric fluid pH 1.5, 37° C., 24 h
Non-standard residues stand in square brackets, D forms with d. Residues, ends and D or L forms follow the SMILES beside them. ξ: configuration not given here. ξBip(2'-Et-4'-OMe) = CCc1cc(OC)ccc1-c1ccc(CC(N)C(=O)O)cc1; ξNva(5-(3-Cl-Ph)) = NC(CCCc1cccc(Cl)c1)C(=O)O
Overview of reported % degradation of peptidomimetics in 24 h when incubated with simulated gastric fluid across a group of molecules:
Output spec: scalar in %, unitless text.

Molecule	Units label	Value measured
CCc1cc(OC)ccc1-c1ccc(CC(NC(=O)[C@H](CC(=O)O)NC(=O)[C@H](CO)NC(=O)[C@@H](NC(=O)[C@H](Cc2ccccc2)NC(=O)[C@@H](NC(=O)CNC(=O)[C@H](CCC(N)=O)NC(=O)[C@H](CO)NC(=O)[C@@H](N)Cc2c[nH]cn2)[C@@H](C)O)[C@@H](C)O)C(=O)NC(CCCc2cccc(Cl)c2)C(N)=O)cc1 (some centres unmarked) [compound 7] (H-HSQGTFTSD[ξBip(2'-Et-4'-OMe)][ξNva(5-(3-Cl-Ph))]-NH2)	%	11
CCc1cc(OC)ccc1-c1ccc(CC(CNC(CCCc2ccccc2)C(N)=O)NC[C@H](CC(=O)O)NC(=O)[C@H](CO)NC(=O)[C@@H](NC(=O)C(C)(Cc2ccccc2F)NC(=O)[C@@H](NC(=O)CNC(=O)[C@H](CCC(N)=O)NC(=O)C(C)(C)NC(=O)[C@H](Cc2c[nH]cn2)NC(=O)OC)[C@@H](C)O)[C@@H](C)O)cc1 (single isomer, unassigned)	%	43
CCc1cc(OC)ccc1-c1ccc(CC(CNC(CCCc2ccccc2F)C(N)=O)NC[C@H](CC(=O)O)NC(=O)[C@H](CO)NC(=O)[C@@H](NC(=O)C(C)(Cc2ccccc2F)NC(=O)[C@@H](NC(=O)CNC(=O)[C@H](CCC(N)=O)NC(=O)C(C)(C)NC(=O)[C@H](Cc2c[nH]cn2)NC(=O)OC)[C@H](C)O)[C@H](C)O)cc1 (single isomer, unassigned)	%	52
CCc1cc(OC)ccc1-c1ccc(CC(CNC(CCCc2ccccc2)C(N)=O)NC[C@H](CC(=O)O)NC(=O)[C@H](CO)NC(=O)[C@@H](NC(=O)C(C)(Cc2ccccc2F)NC(=O)[C@@H](NC(=O)CNC(=O)C(CCC#N)NC(=O)C(C)(C)NC(=O)[C@@H](N)Cc2c[nH]cn2)[C@H](C)O)[C@H](C)O)cc1 (single isomer, unassigned)	%	00

Input line: Return reported % degradation of peptidomimetics in 24 h when incubated with simulated gastric fluid; argument: CCc1cc(OC)ccc1-c1ccc(CC(NC(=O)[C@H](CC(=O)O)NC(=O)[C@H](CO)NC(=O)[C@@H](NC(=O)[C@H](Cc2ccccc2)NC(=O)[C@@H](NC(=O)CNC(=O)[C@H](CCC(N)=O)NC(=O)[C@H](C)NC(=O)[C@@H](N)Cc2c[nH]cn2)[C@@H](C)O)[C@@H](C)O)C(=O)NC(CCCc2ccc(Cl)cc2C)C(N)=O)cc1 (single isomer, unassigned)
Output line: 14

Input line: Return reported % degradation of peptidomimetics in 24 h when incubated with simulated gastric fluid; argument: CCc1cc(OC)ccc1-c1ccc(CC(CNC(CCCc2ccccc2F)C(N)=O)NC[C@H](CC(=O)O)NC(=O)[C@H](CO)NC(=O)[C@@H](NC(=O)C(C)(Cc2ccccc2F)NC(=O)[C@@H](NC(=O)CNC(=O)[C@H](CCC(N)=O)NC(=O)C(C)(C)NC(=O)[C@@H](N)Cc2c[nH]cn2)[C@H](C)O)[C@H](C)O)cc1 (single isomer, unassigned)
Output line: 00

Input line: Return reported % degradation of peptidomimetics in 24 h when incubated with simulated gastric fluid; argument: CCc1cc(OC)ccc1-c1ccc(CC(NC(=O)[C@H](CC(=O)O)NC(=O)[C@H](CO)NC(=O)[C@@H](NC(=O)C(C)(Cc2ccccc2F)NC(=O)[C@@H](NC(=O)CNC(=O)C(CCC#N)NC(=O)C(C)(C)NC(=O)[C@H](Cc2c[nH]cn2)NC(=O)OC)[C@@H](C)O)[C@@H](C)O)C(=O)NC(CCCc2ccccc2F)C(N)=O)cc1 (single isomer, unassigned)
Output line: 100

---

assay: Stability in human plasma; assay type: in vitro ADME; conditions: pH 7.8; 2 μM peptidomimetic, pooled human plasma, 37° C.; read-out: half-life (t1/2) when incubated with human plasma
Test readout: half-life at 2 μM (h)
Output spec: scalar in h, unitless text.

Input line: Return reported half-life at 2 μM; argument: CCc1cc(OC)ccc1-c1ccc(CC(C(=O)N(C)C(CCCc2ccccc2)C(N)=O)N(C)C(=O)[C@H](CC(=O)O)NC(=O)[C@H](CO)NC(=O)[C@@H](NC(=O)C(C)(Cc2ccccc2F)NC(=O)[C@@H](NC(=O)CNC(=O)C(CCC#N)NC(=O)C(C)(C)NC(=O)[C@@H](N)Cc2c[nH]cn2)[C@H](C)O)[C@H](C)O)cc1 (single isomer, unassigned)
Output line: 8

---

Overview of reported % degradation of peptidomimetics in 24 h when incubated with liver microsomes across a group of compounds:
assay: Stability in liver microsomes; type: in vitro ADME; settings: 2 μM peptidomimetic, human liver microsomes, 37° C., 24 h
Output spec: scalar in %, unitless text.

Compound	Value measured
CCc1cc(OC)ccc1-c1ccc(CC(NC(=O)[C@H](CC(=O)O)NC(=O)[C@H](CO)NC(=O)[C@@H](NC(=O)[C@H](Cc2ccccc2)NC(=O)[C@@H](NC(=O)CNC(=O)C(CCC#N)NC(=O)C(C)(C)NC(=O)[C@@H](N)Cc2c[nH]cn2)[C@@H](C)O)[C@@H](C)O)C(=O)NC(CCCc2cccc(Cl)c2)C(N)=O)cc1 (single isomer, unassigned)	100

Input line: Return reported % degradation of peptidomimetics in 24 h when incubated with liver microsomes; argument: CCc1cc(OC)ccc1-c1ccc(CC(NC(=O)[C@H](CC(=O)O)NC(=O)[C@H](CO)NC(=O)[C@@H](NC(=O)C(C)(Cc2ccccc2F)NC(=O)[C@@H](NC(=O)CNC(=O)[C@H](CC(C(F)(F)F)C(F)(F)F)NC(=O)C(C)(C)NC(=O)[C@@H](N)Cc2c[nH]cn2)[C@@H](C)O)[C@@H](C)O)C(=O)NC(CCCc2ccccc2)C(N)=O)cc1 (some centres unmarked)
Output line: 100

---

tested on: C57BL/6J mice (mild hyperglycemic); test: In vivo glucose reduction, acute single dose 120-min time-course, i.p. route; design: species or system mouse; unit not given here; conditions: male C57BL/6J mice, 20 nM/kg i.p., 30 min
Test readout: blood glucose levels

Some entries whose results are on file:
Compound	System under test	blood glucose levels
CCc1cc(OC)ccc1-c1ccc(CC(NC(=O)[C@H](CC(=O)O)NC(=O)[C@H](CO)NC(=O)[C@@H](NC(=O)[C@H](Cc2ccccc2)NC(=O)[C@@H](NC(=O)CNC(=O)C(CCC#N)NC(=O)C(C)(C)NC(=O)[C@@H](N)Cc2c[nH]cn2)[C@@H](C)O)[C@@H](C)O)C(=O)NC(CCCc2ccccc2F)C(N)=O)cc1 (single isomer, unassigned) [Seq. ID. 77]	C57BL/6J mice (mild hyperglycemic)	120 ± 2.8
CCc1cc(OC)ccc1-c1ccc(CC(NC(=O)[C@H](CC(=O)O)NC(=O)[C@H](CO)NC(=O)[C@@H](NC(=O)C(C)(Cc2ccccc2F)NC(=O)[C@@H](NC(=O)CNC(=O)C(CCC#N)NC(=O)C(C)(C)NC(=O)[C@@H](N)Cc2c[nH]cn2)[C@H](C)O)[C@H](C)O)C(=S)NC(CCCc2ccccc2F)C(N)=O)cc1 (single isomer, unassigned) [Seq. ID. 168]	C57BL/6J mice (mild hyperglycemic)	120 ± 3.6

// switching to the query compound
Input line: Return reported blood glucose levels; argument: CCc1cc(OC)ccc1-c1ccc(CC(NC(=O)[C@H](CC(=O)O)NC(=O)[C@H](CO)NC(=O)[C@@H](NC(=O)[C@H](Cc2ccccc2)NC(=O)[C@@H](NC(=O)CNC(=O)C(CCC#N)NC(=O)C(C)(C)NC(=O)[C@@H](N)Cc2c[nH]cn2)[C@@H](C)O)[C@@H](C)O)C(=O)NC(CCCc2ccc(Cl)cc2C)C(N)=O)cc1 (single isomer, unassigned) [Seq. ID. 32]
Output line: 120 ± 3.6
